# system-name: T1, human BMP-11 (GDF-11; R&D Systems) (human, UniProt O95390 299-407)
# T1 sequence (looked up): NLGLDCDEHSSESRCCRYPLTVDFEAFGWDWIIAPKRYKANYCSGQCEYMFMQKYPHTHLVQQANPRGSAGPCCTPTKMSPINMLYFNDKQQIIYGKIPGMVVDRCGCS
# protocol-summary: cell-based or functional assay
observation-type: ARE-luciferase IC50 (nM)
Give your result in nM as a bare value.

// below: answered binders
INSERT INTO assay_data (binder, observation_type, value_observed) VALUES
  ('ATI-1276 [40K 2-branch PEG] (designed binder, 40K 2-branch PEG on the Cys of the EGSGC tail, cysteine mutant of 2524_D09) MGVSDVPRDLEVVAATPTSLLISWYLPYPAHMNYYRITYGETGGNSPVQEFTVPGRGLTATISGLKPGVDYTITVYAVTLTKSQILHHRPISINYRTEGSGCHHHHHH', 'ARE-luciferase IC50', 0.15),
  ('ATI-1266 [40K 2-branch PEG] (designed binder, 40K 2-branch PEG on the Cys of the EGSGC tail, cysteine mutant of 2525_D02) MGVSDVPRDLEVVAATPTSLLISWTLPHAGRAHYYRITYGETGGNSPVQEFTVPGRGVTATISGLKPGVDYTITVYAVTVTTTSVILYKPISINYRTEGSGCHHHHHH', 'ARE-luciferase IC50', 0.89),
  ('ATI-1106 [40K 2-branch PEG] (designed binder, 40K 2-branch PEG on the Cys of the GSGC tail) MGVSDVPRDLEVVAATPTSLLISWVSPRGRARYYRITYGETGGNSPVQEFTVPGRGSTATISGLKPGVDYTITVYAVTIYRDGMSHHDPISINYRTGSGCHHHHHH', 'ARE-luciferase IC50', 1410),
  ('ATI-1379 [40K 2-branch PEG] (designed binder, 40K 2-branch PEG on the Cys of the EGSGC tail) MGVSDVPRDLEVVAATPTSLLISWSLPHQGKANYYRITYGETGGNSPVQEFTVPGRGVTATISGLKPGVDYTITVYAVTVTDTGYLKYKPISINYRTEGSGCHHHHHH', 'ARE-luciferase IC50', 4.3),
  ('ATI-1376 [40K 2-branch PEG] (designed binder, 40K 2-branch PEG on the Cys of the EGSGC tail, cysteine mutant of 3115_E06) MGVSDVPRDLEVVAATPTSLLISWDAPAGLARYYRITYGETGGNSPVQEFTVVGRGNTATISGLKPGVDYTITVYAVTIFRDGPVTWDPISINYRTEGSGCHHHHHH', 'ARE-luciferase IC50', 0.83);

Which ARE-luciferase IC50 value is on record for ATI-1339 [40K 4-branch PEG] (designed binder, 40K 4-branch PEG on the Cys of the EGSGC tail, cysteine mutant of 2987_H07) MGVSDVPRDLEVVAATPTSLLISWTLPHAGRAHYYRITYGETGGNSPVQEFTVPGRGVTATISGLKPGVDYTITVYAVTVTTTKVIHYKPISINYRTEGSGCHHHHHH ?
6
